- Test system: Zone of skin
- Method summary: Permeability in human skin after 48 hrs by Franz cell permeability assay
Reported endpoint: log Pe
Write no unit; give the number alone.

Some entries whose results are on file:
[[record]]
molecule = "CCN1CCCC1CNC(=O)c1cc(S(N)(=O)=O)ccc1OC (configuration not stated) [SULPIRIDE]"
target_under_test = "Zone of skin"
quantitative_readout = -1.48

[[record]]
molecule = "CC(=O)[C@H]1CC[C@H]2[C@@H]3CCC4=CC(=O)CC[C@]4(C)[C@H]3CC[C@]12C [PROGESTERONE]"
target_under_test = "Zone of skin"
quantitative_readout = 1.08

[[record]]
molecule = "CCOC(=O)[C@H](CCc1ccccc1)N[C@@H](C)C(=O)N1CCC[C@H]1C(=O)O.O=C(O)/C=C\\C(=O)O [ENALAPRIL MALEATE]"
target_under_test = "Zone of skin"
quantitative_readout = -1.72

[[record]]
molecule = "O=C(O)c1cc(/N=N/c2ccc(S(=O)(=O)Nc3ccccn3)cc2)ccc1O [SULFASALAZINE]"
target_under_test = "Zone of skin"
quantitative_readout = -1.31


Item: NC(=O)N1c2ccccc2C=Cc2ccccc21 [CARBAMAZEPINE] | log Pe: 0.18

Briefly, log Pe measured for Cl.Clc1cccc(Cl)c1NC1=NCCN1 [CLONIDINE HYDROCHLORIDE] : -0.68

// field: log Pe; key: NS(=O)(=O)c1cc2c(cc1Cl)NCNS2(=O)=O [HYDROCHLOROTHIAZIDE] ; value = -2
